Reported MIC for target or system Staphylococcus aureus C623, by entry.

compound string | MIC
CC[C@H](C)[C@H](N)C(=O)N[C@@H](CCCCN)C(=O)N[C@@H](CCCCN)C(=O)N[C@@H](CCCN=C(N)N)C(=O)N[C@@H](Cc1c[nH]c2ccccc12)C(=O)N[C@@H](Cc1c[nH]c2ccccc12)C(=O)N[C@@H](Cc1c[nH]c2ccccc12)C(=O)N[C@@H](Cc1ccccc1)C(=O)N[C@@H](CCCN=C(N)N)C(=O)O | 22.8 µM
CC(=O)[C@H](C)NC(=O)[C@H](Cc1ccccc1)NC(=O)[C@H](Cc1cnc[nH]1)NC(=O)[C@H](CCCNC(=N)N)NC(=O)[C@H](CCC(N)=O)NC(=O)[C@H](CO)NC(=O)[C@H](CC(C)C)NC(=O)[C@H](CCCNC(=N)N)NC(=O)[C@H](CCC(=O)O)NC(=O)CNC(=O)[C@H](CCCCN)NC(=O)[C@@H](NC(=O)[C@H](Cc1ccccc1)NC(=O)[C@H](Cc1c[nH]c2ccccc12)NC(=O)[C@H](CCCCN)NC(=O)[C@H](CCCCN)NC(=O)[C@H](Cc1c[nH]c2ccccc12)NC(=O)CN)[C@@H](C)O | 28.3 µM
CC[C@H](C)[C@H](NC(=O)[C@H](CCCN=C(N)N)NC(=O)[C@@H](N)CCCCN)C(=O)N[C@@H](CCSC)C(=O)N[C@@H](CCCCN)C(=O)N[C@@H](CC(C)C)C(=O)N[C@@H](CCCCN)C(=O)N[C@@H](CCSC)C(=O)N[C@@H](CCCN=C(N)N)C(=O)O | ≥ 226 µM
CC(C)C[C@H](NC(=O)[C@H](Cc1c[nH]c2ccccc12)NC(=O)[C@H](CCCN=C(N)N)NC(=O)[C@H](Cc1c[nH]c2ccccc12)NC(=O)[C@H](Cc1c[nH]c2ccccc12)NC(=O)[C@H](CCCCN)NC(=O)[C@H](CCCCN)NC(=O)[C@H](Cc1c[nH]c2ccccc12)NC(=O)[C@@H](N)CCCN=C(N)N)C(=O)O | 2.77 µM

----------
Test system: Staphylococcus aureus ATCC 25923

compound | experimental system | unit string | MIC
CC[C@H](C)[C@H](NC(=O)[C@H](CCCN=C(N)N)NC(=O)[C@@H](N)Cc1c[nH]c2ccccc12)C(=O)N[C@@H](CCCN=C(N)N)C(=O)N[C@@H](CCCN=C(N)N)C(=O)N[C@@H](CCCN=C(N)N)C(=O)N1CCC[C@H]1C(=O)N1CCC[C@H]1C(=O)N[C@@H](CCCN=C(N)N)C(=O)N[C@@H](CC(C)C)C(=O)N1CCC[C@H]1C(=O)N[C@@H](CCCN=C(N)N)C(=O)N1CCC[C@H]1C(=O)N[C@@H](CCCN=C(N)N)C(=O)N[C@@H](Cc1c[nH]c2ccccc12)C(=O)N[C@@H](CCCN=C(N)N)C(=O)O [WRIRRRPPRLPRPRWR] | Staphylococcus aureus ATCC 25923 | µM | 32

----------
Reported MIC for target or system Candida parapsilosis ATCC 22019, by entry.
reported property: MIC (µM)

compound string | unit string | limit operator | numeric result
CC[C@H](C)[C@H](NC(=O)[C@H](Cc1cnc[nH]1)NC(=O)[C@H](CO)NC(=O)[C@H](CC(C)C)NC(=O)[C@@H](N)Cc1ccccc1)C(=O)N[C@@H](C)C(=O)NCC(=O)N[C@@H](Cc1ccccc1)C(=O)N[C@@H](CC(C)C)C(=O)N[C@@H](CO)C(=O)N[C@@H](CC(N)=O)C(=O)N[C@@H](CC(C)C)C(=O)N[C@@H](Cc1ccccc1)C(=O)O | µM | = | 20
CC(C)C[C@H](NC(=O)[C@H](CCC(N)=O)NC(=O)[C@H](CCCCN)NC(=O)[C@H](CCCN=C(N)N)NC(=O)[C@H](Cc1ccccc1)NC(=O)[C@@H](N)Cc1c[nH]c2ccccc12)C(=O)N[C@@H](CCCCN)C(=O)N[C@@H](Cc1c[nH]c2ccccc12)C(=O)O | µM | = | 5.25
CC(C)C[C@H](NC(=O)[C@H](CC(C)C)NC(=O)[C@H](CCCN=C(N)N)NC(=O)[C@H](CCCN=C(N)N)NC(=O)[C@H](CC(C)C)NC(=O)[C@H](Cc1c[nH]c2ccccc12)NC(=O)[C@H](CCCN=C(N)N)NC(=O)[C@H](CC(C)C)NC(=O)[C@H](CC(C)C)NC(=O)[C@H](CCCN=C(N)N)NC(=O)[C@H](CCCN=C(N)N)NC(=O)[C@@H](N)CC(C)C)C(=O)N[C@@H](CCCN=C(N)N)C(=O)N[C@@H](CCCN=C(N)N)C(=O)O | µM | = | 3.16
CSCC[C@H](NC(=O)CNC(=O)[C@H](CCC(N)=O)NC(=O)[C@H](C)NC(=O)[C@H](CCCN=C(N)N)NC(=O)CNC(=O)[C@H](C)NC(=O)[C@@H](NC(=O)[C@@H](N)CO)C(C)C)C(N)=O | µM | ≥ | 144
CC[C@H](C)[C@H](NC(=O)[C@H](CCCN=C(N)N)NC(=O)CNC(=O)[C@H](CC(C)C)NC(=O)[C@H](CCCCN)NC(=O)[C@H](CCCCN)NC(=O)[C@H](CO)NC(=O)[C@H](Cc1ccccc1)NC(=O)[C@H](Cc1c[nH]c2ccccc12)NC(=O)[C@H](CCCCN)NC(=O)[C@@H](NC(=O)[C@@H](N)Cc1ccccc1)C(C)C)C(=O)N[C@@H](CC(C)C)C(N)=O | µM | = | 30

----------
System: Staphylococcus aureus ATCC 25923
Please respond with T when measured MIC is strictly beneath 10 µM, and with F in all other cases.

compound string | experimental system | label value
CC[C@H](C)[C@H](N)C(=O)N[C@@H](CO)C(=O)NCC(=O)N1CCC[C@H]1C(=O)N[C@H](C(=O)N[C@@H](CC(C)C)C(=O)NCC(=O)N[C@@H](CC(C)C)C(=O)N[C@H](C(=O)NCC(=O)N[C@@H](CC(N)=O)C(=O)N[C@@H](C)C(=O)N[C@@H](CC(C)C)C(=O)NCC(=O)NCC(=O)N[C@@H](CC(C)C)C(=O)N[C@H](C(=O)N[C@@H](CCCCN)C(=O)N[C@@H](CCCCN)C(=O)N[C@H](C(N)=O)[C@@H](C)CC)[C@@H](C)CC)C(C)C)C(C)C | Staphylococcus aureus ATCC 25923 | F
CC[C@H](C)[C@H](NC(=O)[C@H](C)NC(=O)[C@H](CC(N)=O)NC(=O)[C@@H](N)CCSC)C(=O)N[C@@H](CC(N)=O)C(=O)N[C@@H](Cc1ccccc1)C(=O)N[C@H](C(=O)N[C@@H](CS)C(=O)N[C@H](C(=O)N[C@H](C(=O)N[C@@H](Cc1cnc[nH]1)C(=O)N[C@@H](CCCCN)C(=O)N[C@@H](CCCCN)C(=O)N[C@H](C(=O)N[C@@H](C)C(=O)N[C@H](C(=O)N[C@@H](CO)C(=O)N[C@H](C(=O)O)C(C)C)[C@@H](C)CC)C(C)C)C(C)C)[C@@H](C)O)[C@@H](C)O | Staphylococcus aureus ATCC 25923 | F
CC[C@H](C)[C@H](N)C(=O)N[C@@H](CCCN=C(N)N)C(=O)N[C@H](C(=O)N[C@@H](CCCN=C(N)N)C(=O)N[C@@H](CS)C(=O)N[C@@H](CCCN=C(N)N)C(=O)N[C@@H](CCCN=C(N)N)C(=O)N[C@@H](CCCN=C(N)N)C(=O)N[C@@H](Cc1ccccc1)C(=O)N[C@@H](CS)C(=O)N[C@@H](CCCN=C(N)N)C(=O)N[C@H](C(=O)N[C@@H](CCCN=C(N)N)C(=O)N[C@H](C(N)=O)[C@@H](C)CC)[C@@H](C)CC)[C@@H](C)CC | Staphylococcus aureus ATCC 25923 | T
CC[C@H](C)[C@H](NC(=O)[C@H](CCCN=C(N)N)NC(=O)[C@H](CCCN=C(N)N)NC(=O)[C@H](CC(C)C)NC(=O)[C@@H](N)CCCN=C(N)N)C(=O)N[C@H](C(=O)N[C@H](C(=O)N[C@H](C(=O)N[C@@H](CCCN=C(N)N)C(=O)N[C@H](C(=O)N[C@@H](C)C(=O)N[C@@H](CCCN=C(N)N)C(=O)O)C(C)C)[C@@H](C)CC)C(C)C)C(C)C | Staphylococcus aureus ATCC 25923 | T
NC(=O)[C@H](Cc1c[nH]c2ccccc12)NC(=O)[C@H](CCCN=C(N)N)NC(=O)[C@@H](N)Cc1c[nH]c2ccccc12 | Staphylococcus aureus ATCC 25923 | F
CC[C@H](C)[C@H](N)C(=O)N[C@@H](CC(N)=O)C(=O)N[C@@H](Cc1c[nH]c2ccccc12)C(=O)N[C@@H](CC(C)C)C(=O)N[C@@H](C)C(=O)N[C@H](C(=O)N[C@@H](C)C(=O)N[C@@H](CCCCN)C(=O)N[C@@H](CCCCN)C(=O)N[C@H](C(=O)N[C@@H](C)C(=O)NCC(=O)N[C@@H](CCSC)C(=O)N[C@@H](CC(C)C)C(N)=O)C(C)C)[C@@H](C)CC | Staphylococcus aureus ATCC 25923 | F
CC[C@H](C)[C@H](NC(=O)[C@H](CC(C)C)NC(=O)CNC(=O)[C@H](CCCCN)NC(=O)[C@H](CC(C)C)NC(=O)[C@H](CC(N)=O)NC(=O)[C@@H](N)CC(C)C)C(=O)N[C@@H](CCCCN)C(=O)N[C@@H](CCCCN)C(=O)N[C@H](C(=O)N[C@@H](C)C(=O)N[C@@H](CO)C(=O)N[C@@H](CC(C)C)C(=O)N[C@@H](CC(C)C)C(=O)N[C@@H](CC(N)=O)C(=O)O)C(C)C | Staphylococcus aureus ATCC 25923 | F
CC(C)C[C@H](NC(=O)[C@H](CC(C)C)NC(=O)[C@H](CCCN=C(N)N)NC(=O)CNC(=O)[C@H](CC(C)C)NC(=O)[C@H](CC(C)C)NC(=O)[C@H](CCCCN)NC(=O)[C@H](CO)NC(=O)[C@H](CC(C)C)NC(=O)[C@H](Cc1c[nH]c2ccccc12)NC(=O)[C@H](CCC(N)=O)NC(=O)[C@H](CC(C)C)NC(=O)[C@@H](N)CC(C)C)C(N)=O | Staphylococcus aureus ATCC 25923 | T
CC[C@H](C)[C@H](NC(=O)[C@H](CCCCN)NC(=O)[C@H](CCCCN)NC(=O)CNC(=O)[C@H](CC(C)C)NC(=O)[C@H](CCCN=C(N)N)NC(=O)[C@H](CCCCN)NC(=O)[C@H](CC(C)C)NC(=O)[C@H](CC(C)C)NC(=O)[C@H](CCCCN)NC(=O)[C@H](CCSC)NC(=O)[C@@H]1CCCN1)C(=O)N[C@@H](CCCN=C(N)N)C(=O)N[C@@H](CC(C)C)C(=O)N[C@@H](C)C(=O)N[C@@H](C)C(=O)N[C@@H](C)C(=O)N[C@@H](Cc1ccccc1)C(=O)N[C@@H](CCCCN)C(=O)O | Staphylococcus aureus ATCC 25923 | F
